Entries with reported IC50 on Heat shock protein HSP 90-beta (Homo sapiens)
Sequence (P08238 whole entry): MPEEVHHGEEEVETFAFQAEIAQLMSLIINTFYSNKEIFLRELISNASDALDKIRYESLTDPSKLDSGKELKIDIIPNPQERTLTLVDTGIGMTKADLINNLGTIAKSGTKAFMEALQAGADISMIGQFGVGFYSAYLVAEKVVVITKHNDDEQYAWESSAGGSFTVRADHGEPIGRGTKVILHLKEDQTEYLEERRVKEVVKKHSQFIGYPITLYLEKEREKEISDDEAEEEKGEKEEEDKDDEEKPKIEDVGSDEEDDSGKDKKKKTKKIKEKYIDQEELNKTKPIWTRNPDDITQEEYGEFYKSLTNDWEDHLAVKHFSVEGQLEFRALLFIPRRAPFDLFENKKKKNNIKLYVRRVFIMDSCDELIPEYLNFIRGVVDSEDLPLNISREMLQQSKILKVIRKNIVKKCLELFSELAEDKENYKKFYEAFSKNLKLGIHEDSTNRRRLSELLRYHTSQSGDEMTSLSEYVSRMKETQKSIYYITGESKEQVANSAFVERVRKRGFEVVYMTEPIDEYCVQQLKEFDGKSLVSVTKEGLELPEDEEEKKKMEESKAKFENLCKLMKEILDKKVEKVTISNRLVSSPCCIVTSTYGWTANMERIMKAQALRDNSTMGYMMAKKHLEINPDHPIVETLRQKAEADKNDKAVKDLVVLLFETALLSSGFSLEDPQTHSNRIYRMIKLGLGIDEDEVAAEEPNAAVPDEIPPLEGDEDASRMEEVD
reported endpoint: IC50 (nM)

In the examples that follow, each entry is paired with its recorded IC50.
# compound, assay system, reported endpoint, u, endpoint value
records = [
    ("O=C(NC1c2ccccc2-c2c(-c3nc4ccncc4[nH]3)cccc21)c1ccncc1 (racemic)", "Heat shock protein HSP 90-beta (Homo sapiens)", "IC50", "nM", 1300),
    ("NC(=O)CCC(=O)NC1c2ccccc2-c2c(-c3nc4cnccc4[nH]3)cccc21 (racemic)", "Heat shock protein HSP 90-beta (Homo sapiens)", "IC50", "nM", 50000),
]

(1) Nc1cc(C(=O)NC2c3ccccc3-c3c(-c4nc5ccncc5[nH]4)cccc32)ccn1 (racemic)
(2) O=C(NC1c2ccccc2-c2c(-c3nc4ccccc4[nH]3)cccc21)c1cccc2ncccc12 (racemic)
Prompt line: Identify the item whose IC50 is the smaller number: 1 or 2 Answer by stating the label of the chosen item.
Response line: 1
(1: 900 nM, 2: 1300 nM)
